- System: HG-3 cells
- test_parameters: 10 µM
Assign labels as follows, please: label 1 for cell viability below 20%; label 0 for cell viability equal to or exceeding 20%.

Please review the following examples before continuing.
| molecule | category |
| --- | --- |
| O=C(/C=C/C12c3ccccc3C(c3ccccc31)C1C(=O)NC(=O)C12)c1ccc2ccccc2c1 (stereo not shown) [Compound 23p] | label 1 |
| O=C(c1ccccc1)c1ccc(N2C(=O)C3C4c5ccccc5C(C=CC(=O)c5ccco5)(c5ccccc54)C3C2=O)cc1 (stereo not shown) [Compound 26o] | label 1 |
| O=C(C=CC12c3ccccc3C(c3ccccc31)C1C(=O)N(c3ccc(Cl)cc3)C(=O)C12)c1cccs1 (stereo not shown) [Compound 25q] | label 0 |
| O=C(/C=C/C12c3ccccc3C(c3ccccc31)C1C(=O)N(c3ccccc3)C(=O)C12)c1ccc(Cl)cc1 (stereo not shown) [Compound 24l] | label 0 |
| O=C(c1ccccc1)c1ccc(N2C(=O)C3C4c5ccccc5C(/C=C/C(=O)c5cccs5)(c5ccccc54)C3C2=O)cc1 (stereo not shown) [Compound 26q] | label 0 |
| O=C(/C=C/C12c3ccccc3C(c3ccccc31)C1C(=O)N(c3ccc(C(=O)c4ccccc4)cc3)C(=O)C12)c1ccc(Br)cc1 (stereo not shown) [Compound 26a] | label 0 |

Now take the following molecule into account.
Query block: For this molecule, is cell viability lower than 20%? O=C(/C=C/C12c3ccccc3C(c3ccccc31)C1C(=O)NC(=O)C12)c1ccc(I)cc1 (stereo not shown) [Compound 23g]
Result block: label 1

----------
- measurement_protocol: HPLC stability study in phosphate buffers
- Assay type: physicochemical
- test_parameters: pH 4 buffer, 37 °C
property_name: Half-life pH 4 (h)
Please reply with the bare figure in h and do not write the unit itself.

| molecule | property_name | reading |
| --- | --- | --- |
| O=C(/C=C/C12c3ccccc3C(c3ccccc31)C1C(=O)N(c3ccccc3)C(=O)C12)c1ccc(F)cc1 (stereo not drawn) [Compound 24h] | Half-life pH 4 | 14.8 |
| O=C(/C=C/C12c3ccccc3C(c3ccccc31)C1C(=O)NC(=O)C12)c1ccccn1 (stereo not drawn) [Compound 23n] | Half-life pH 4 | 19 |
| O=C(/C=C/C12c3ccccc3C(c3ccccc31)C1C(=O)NC(=O)C12)c1ccc(I)cc1 (stereo not drawn) [Compound 23g] | Half-life pH 4 | 11.3 |
| O=C(/C=C/C12c3ccccc3C(c3ccccc31)C1C(=O)OC(=O)C12)c1ccc(F)cc1 (stereo not drawn) [Compound 22h] | Half-life pH 4 | 2.1 |

Query block: I am curious: what Half-life pH 4 value has been reported for O=C(c1ccccc1)c1ccc(N2C(=O)C3C4c5ccccc5C(/C=C/C(=O)c5ccccn5)(c5ccccc54)C3C2=O)cc1 (stereo not drawn) [Compound 26n] ?
Result block: 8.5

----------
Measured half-life at 14.6 µg/mL, listed per entry.
- measurement_protocol: HPLC stability study in phosphate buffers
- Type: physicochemical
- test_parameters: phosphate buffer; pH 9 buffer, 37 °C; read-out: Half-life pH 9 (converted)
- Procedure: A preliminary stability study was carried out on selected chalcones, maleic anhydride and maleimide adducts at acidic, neutral and basic conditions (pH 4, 7.4 and 9) using HPLC to determine suitability for further preclinical investigations. […] All samples were analyzed using acetonitrile–water (80:20%, 70:30%, 60:40% isocratic) as the mobile phase over 10 min and a flow rate of 1 mL/min. […]

These recorded examples may help you get a feel for the data.
| molecule | property_name | reading |
| --- | --- | --- |
| COc1ccc(C(=O)/C=C/c2c3ccccc3cc3ccccc23)cc1 [Compound 21i] | half-life at 14.6 µg/mL | ~690 min |
| O=C(/C=C/C12c3ccccc3C(c3ccccc31)C1C(=O)N(c3ccccc3)C(=O)C12)c1ccc(Br)cc1 (stereo not shown) [Compound 24a] | half-life at 14.6 µg/mL | 1410 min |
| O=C(C=CC12c3ccccc3C(c3ccccc31)C1C(=O)NC(=O)C12)c1ccc(Br)cc1 (stereo not shown) [Compound 23a] | half-life at 14.6 µg/mL | ~450 min |

Let us examine a further case.
Query block: I am curious: what half-life at 14.6 µg/mL value has been reported for O=C(/C=C/c1c2ccccc2cc2ccccc12)c1ccc(Br)cc1 [Compound 21a] ?
Result block: 90 min
